Measured log10 of IC90 of individual entries
Tested on: Acinetobacter baumannii ATCC 17978
Assay: Antimicrobial susceptibility testing: 90% growth inhibitory concentration (IC90) determination
Type: cell-based
Settings: Acinetobacter baumannii, ATCC17978, 16 h, 90% growth inhibitory concentration; Acinetobacter baumannii ATCC17978; Iso-Sensitest broth, OD 600 nm over 16h; read-out: ATCC17978 IC90
Where a name gives a salt, the structure may show the parent alone.
Log scale reminder: IC90 in nM, then log10 taken.

Example entries and their recorded answers appear below.
molecule="CCc1cc(Nc2nccn3c(-c4ccc(OC)c(F)c4F)cnc23)ccc1C(=O)NCCNC(=O)[C@@H](N)CCCNC1=NCCN1 [Example 128, formate]" numeric_value=2.38
molecule="CNC(=O)c1ccc(Nc2nccn3c(-c4ccc(OC(F)F)cc4)cnc23)cc1C1CC1 [Example 167]" numeric_value=3.04

# COc1ccc(-c2cnc3c(Nc4ccc(C(=O)NCCCCCCN)c(C)c4)nccn23)c(F)c1F [Example 493, hydrochloride] with Acinetobacter baumannii ATCC 17978: log10 of IC90 is 1.54

# CCCc1cc(Nc2nccn3c(-c4ccc(OC(F)F)cc4)cnc23)ccc1C(=O)NC [Example 152] with Acinetobacter baumannii ATCC 17978: log10 of IC90 is 3.04

###

Test system: Acinetobacter baumannii ATCC 17978
Test: Antimicrobial susceptibility testing: 90% growth inhibitory concentration (IC90) determination
Assay type: cell-based
Details: Acinetobacter baumannii, ATCC17978, 16 h, 90% growth inhibitory concentration; Acinetobacter baumannii ATCC17978; Iso-Sensitest broth, OD 600 nm over 16h; read-out: ATCC17978 IC90
Procedure: Antimicrobial Susceptibility Testing: 90% Growth Inhibitory Concentration (IC90) Determination The in vitro antimicrobial activity of the compounds was determined according to the following procedure: The assay used a 10-points Iso-Sensitest broth medium to measure quantitatively the in vitro activity of the compounds against Acinetobacter baumannii ATCC 17978 and Acinetobacter baumannii ATCC 17961. […]
Structures can show the parent of a compound that is named as a salt.
Please respond with y when measured IC90 is strictly beneath 800 nM, and with n in all other cases.

Use these answered entries as a reference point.
compound="Cc1cc(Nc2nccn3c(-c4ccc(OC(F)F)cc4)cnc23)ccc1C(=O)NCCCCCCN [Example 21, hydrochloride]" target_under_test="Acinetobacter baumannii ATCC 17978" class_name=y
compound=COc1ccc(-c2cnc3c(Nc4ccc(C(=O)NCCCC[C@H](N)C(=O)O)c(C)c4)nccn23)c(F)c1F target_under_test="Acinetobacter baumannii ATCC 17978" class_name=n
compound=COc1ccc(-c2cnc3c(Nc4ccc(C(=O)NCCN5CCNCC5=O)c(C)c4)nccn23)cc1F target_under_test="Acinetobacter baumannii ATCC 17978" class_name=n
compound=COc1ccc(-c2cnc3c(Nc4ccc(C(=O)NCCN5CCNC(=O)C5)c(C)c4)nccn23)cc1F target_under_test="Acinetobacter baumannii ATCC 17978" class_name=y
compound="CCc1cc(Nc2nccn3c(-c4ccc(OC)c(F)c4F)cnc23)ccc1C(=O)NCCNC(=O)CC(O)CN (stereo not shown)" target_under_test="Acinetobacter baumannii ATCC 17978" class_name=y
compound=CNCCCN1CCc2cc(Nc3nccn4c(-c5ccc(OC)c(F)c5F)cnc34)ccc2C1=O target_under_test="Acinetobacter baumannii ATCC 17978" class_name=y

Shift focus to the following entry.
Is IC90 strictly under 800 nM for the entry CCc1cc(Nc2nccn3c(-c4ccc(OC)c(F)c4F)cnc23)ccc1C(=O)NCC(N)CC (stereo not shown) [Example 523, hydrochloride] ?
y
